Each recorded value in this set is attributed to ChEMBL document CHEMBL2062484.

Reported CC50 at 24 h values are given for each entry in this list.
# method_description: Cytotoxicity against human Caco2 cells assessed as cell viability after 24 hrs by MTT assay
# Type: cell-based
# condition_set: Caco-2 cells
assay_metric: CC50 at 24 h (µM)

1. O=C1NC(=O)C(c2ccc(Oc3ccccc3)cc2)(N(CCO)CCO)C(=O)N1: 8.2
2. CN(CCO)C1(c2ccc(Oc3ccccc3)cc2)C(=O)NC(=O)NC1=O: 76.5
3. O=C1NC(=O)C(c2ccc(Oc3ccccc3)cc2)(N2CCC(CCO)CC2)C(=O)N1: 25.2

---

# method_description: Cytotoxicity against human Caco2 cells assessed as inhibition of cell viability at 2.5 uM after 24 hrs by MTT assay
# Format: cell-based
# condition_set: Caco-2 cells, read-out: INH
assay_metric: cytotoxicity at 24 h, 2.5 µM (%)

1. O=C1NC(=O)C(c2ccc(Oc3ccccc3)cc2)(N2CCC(CO[N+](=O)[O-])CC2)C(=O)N1: 12
